tested_on: T1, Ax1 protein, extracellular domain (human, UniProt P30530 26-451)
T1 construct: extracellular domain; also called Axl; Ark
T1 sequence (looked up): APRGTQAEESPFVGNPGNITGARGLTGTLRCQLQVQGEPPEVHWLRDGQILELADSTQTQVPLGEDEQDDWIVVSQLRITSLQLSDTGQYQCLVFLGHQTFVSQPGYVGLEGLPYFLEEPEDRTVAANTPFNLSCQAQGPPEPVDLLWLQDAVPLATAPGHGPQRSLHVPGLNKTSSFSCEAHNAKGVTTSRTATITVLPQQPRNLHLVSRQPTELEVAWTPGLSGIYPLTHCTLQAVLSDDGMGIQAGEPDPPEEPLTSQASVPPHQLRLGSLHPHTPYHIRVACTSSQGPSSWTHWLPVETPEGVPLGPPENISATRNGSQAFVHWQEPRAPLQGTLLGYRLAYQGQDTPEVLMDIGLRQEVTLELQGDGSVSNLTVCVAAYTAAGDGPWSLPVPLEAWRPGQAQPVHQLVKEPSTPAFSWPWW
assay_remarks: ELISA, mutant diluted 1:9
measured_quantity: Affinity ELISA CPE mutant ratio (1:9, pH 6.0/7.4)
Kindly provide the number alone.

**Query** So what's the measured Affinity ELISA CPE mutant ratio (1:9, pH 6.0/7.4) for this one? HC-Y104P (antibody, V domains shown, CPE single point mutant) VH: EVQLVQSGAEVKKPGATVKISCKVSGYSFTGHTMNWIRQPPGKGLEWIGLIKPSNGGTSYNQKFKGRVTISADKSISTAYLQWSSLKASDTAMYYCAHGHYESPFAMDYWGQGTLVTVSS VL: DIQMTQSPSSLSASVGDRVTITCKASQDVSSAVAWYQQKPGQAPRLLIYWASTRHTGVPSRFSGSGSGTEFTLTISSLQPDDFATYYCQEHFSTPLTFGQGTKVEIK
**Result** 2.42

Value source: patent US20240199746A1
